Where these numbers come from: PubChem BioAssay (NCATS)

Test: Quantitative High-Throughput drug screen in 47 multiple myeloma cell lines against the NCATS MIPE library collection: Karpas620_DSMZ cell viability assay (AID 1918959); further: nearly all actives have a fitted effect of over 30% in size
Conditions: Karpas620 myeloma viability, CellTiter-Glo ATP luminescence, 48 h; series mostly up to 45.8 µM
Results filed as inconclusive are left out. Activity calls are given as the source filed them. The call rests on the fitted dose curve; in most records, active means well fitted cell-killing curve with a large enough effect; inconclusive means small, poorly fitted or top-dose-only effect, or effect the other way; inactive means no such curve, though single readings can be large or run the other way.
Classes used: active, inactive

* CC(C)(C)c1nc(-c2cccc(NS(=O)(=O)c3c(F)cccc3F)c2F)c(-c2ccnc(N)n2)s1 | active
* O=C(Nc1cccc(Cl)c1)Nc1ncc(CCNc2ncnc3ccsc23)s1 | active
* Cc1[nH]c(C=C2C(=O)Nc3ccc(S(=O)(=O)N(C)c4cccc(Cl)c4)cc32)c(C)c1C(=O)N1CCN(C)CC1 | active
* CC[C@H](CC#N)OC(=O)N[C@@H](C)c1cccc(NC(=O)Nc2ccc(-c3cnco3)c(OC)c2)c1 | active
* CN(C)CCN(Cc1ccc(Cl)cc1)c1ccccn1 | inactive

====

Assay: Quantitative High-Throughput drug screen in 47 multiple myeloma cell lines against the NCATS MIPE library collection: OCIMY5_PLB cell viability assay (AID 1918988); further: nearly all actives have a fitted effect of over 65% in size
Details: OCI-MY5 myeloma viability, ATP luminescence, 48 h; series mostly up to 45.8 µM
Text: PI: Beverly A. Mock Ph.D. Laboratory of Cancer Biology and Genetics, Center for Cancer Research, National Cancer Institute, National Institute of Health, Bethesda, Maryland […] 5; Detector; 425V; Luminescence; Viewlux PerkinElmer. […] 1. […] Briefly, the corresponding myeloma cell lines were screened in 1,536-well plates with 500 cells, 5-uL per well for inhibition of cell viability (assessed by measuring ATP levels with CellTiterGlo). […]
Inconclusive results are not listed. The source made the active and inactive calls. Calls come from the whole dose curve; as a rule, active = well fitted cell-killing curve with a large enough effect; inconclusive = small, poorly fitted or top-dose-only effect, or effect the other way; inactive = no such curve, though single readings can be large or run the other way.
Classes used: True (active), False (inactive)

* COc1cc(Cl)cn2c(-c3cccc(NC4CNC4)n3)cnc12 | True
* O=c1[nH]c(=O)n([C@H]2C[C@@H](O)[C@@H](CO)O2)cc1I | False
* N#CC(=C1Nc2ccccc2S1)c1ccnc(OCc2ccc(CN3CCOCC3)cc2)n1 | True
* CCN(CCO)CCCOc1ccc2c(Nc3cc(CC(=O)Nc4cccc(F)c4)[nH]n3)ncnc2c1 | True
* CC1=C(CC(=O)O)c2cc(F)ccc2C1=Cc1ccc(S(C)=O)cc1 (stereo not drawn) | True
* Cc1ccc2c(=O)c3cccc(CC(=O)O)c3oc2c1C | True
* CCC[C@H](Nc1nc(-c2ccc(NC(=O)NCC)c(OC)c2)ncc1C)c1cccnc1 | True
* COc1ccc(-c2oc3c(CC=C(C)C)c(O)cc(O)c3c(=O)c2O)cc1 | True
* NC(=O)c1nnn(Cc2cc(Cl)c(C(=O)c3ccc(Cl)cc3)c(Cl)c2)c1N | True
* CCC(=C(c1ccc(O)cc1)c1ccc(OCCNC)cc1)c1ccccc1 | True
* CC(C)CN(C[C@H](O)[C@H](Cc1ccccc1)NC(=O)O[C@H]1CCOC1)S(=O)(=O)c1ccc(N)cc1 | True
* Nc1nc(Cl)nc2c1ncn2[C@@H]1O[C@H](CO)[C@@H](O)[C@H]1F | True
* COc1c(C)c2c(c(O)c1CC=C(C)CCC(=O)OCCN1CCOCC1)C(=O)OC2 | True
* C[C@@H]1[C@H](O)[C@@H](C)C=CC=CC=CC=CC=CC=CC=C[C@H](O[C@@H]2O[C@H](C)[C@H](O)[C@H](N)[C@@H]2O)C[C@@H]2O[C@](O)(C[C@@H](O)C[C@@H](O)[C@H](O)CC[C@@H](O)C[C@@H](O)CC(=O)O[C@H]1C)C[C@H](O)[C@@H]2C(=O)O | True
* COc1cc2ncnc(Nc3cc(Br)c(O)c(Br)c3)c2cc1OC | True
* CC(=O)O[C@]1(C(C)=O)CC[C@H]2[C@@H]3C=C(Cl)C4=CC(=O)[C@@H]5C[C@H]5[C@]4(C)[C@@H]3CC[C@@]21C | True
* O=C(Nc1ccc(OC(F)(F)F)cc1)c1sccc1NCc1ccnc2ccccc12 | True
* OC[C@H]1O[C@@H](O[C@H]2[C@@H](O)[C@@](O)(CO)O[C@@H]2CO)[C@H](O)[C@@H](O)[C@@H]1O | False

====

Assay: Quantitative High-Throughput drug screen in 47 multiple myeloma cell lines against the NCATS MIPE library collection: JIM3_ECACC cell viability assay (AID 1918963; further: nearly all actives have a fitted effect of over 35% in size; further: potency means the concentration at half of the fitted maximal effect)
Conditions: JIM3 myeloma viability, CellTiter-Glo ATP, 48 h; series mostly up to 45.8 µM
Inconclusive results are not listed. The source made the active and inactive calls. Calls come from the whole dose curve; as a rule, active = well fitted cell-killing curve with a large enough effect; inconclusive = small, poorly fitted or top-dose-only effect; inactive = no such curve, though single readings can be large or run the other way.
recorded metric: Potency

• CC1=C(CC(=O)O)c2cc(F)ccc2C1=Cc1ccc(S(C)=O)cc1 (stereo not given) = 13.2 µM (active)
• Cc1nc(NC(=O)N2CCC[C@@H]2C(N)=O)sc1-c1csc(C(C)(C)C)n1 = 5.9 µM (active)
• O=c1[nH]c(=O)n([C@H]2C[C@@H](O)[C@@H](CO)O2)cc1C(F)(F)F = inactive
• CCn1c(-c2nonc2N)nc2cncc(CNC3CCNCC3)c21 = 2.96 µM (active)
• COC(=O)[C@H](c1ccccc1Cl)N1CCc2sccc2C1 = inactive

====

Assay: Quantitative High-Throughput drug screen in 47 multiple myeloma cell lines against the NCATS MIPE library collection: RPMI8226_ATCC cell viability assay (AID 1919871); further: nearly all actives have a fitted effect of over 30% in size
Details: RPMI8226 myeloma viability, CellTiter-Glo ATP luminescence, 48 h; series mostly up to 45.8 µM
Results filed as inconclusive are left out. Active and inactive are the calls of the source. Calls follow the shape of the dose curve; as a rule, active = well fitted cell-killing curve with a large enough effect; inconclusive = small, poorly fitted or top-dose-only effect, or effect the other way; inactive = no such curve, though single readings can be large or run the other way.
Classes used: active, inactive

• O=C1NC(=O)C(c2cnc3ccccn23)=C1c1cn2c3c(cccc13)CN(C(=O)N1CCOCC1)CC2 = active
• CNC(=O)c1cc(COc2nnc(Nc3ccc(Cl)cc3)c3ccoc23)ccn1 = active
• Cc1cc(C(C)Nc2ccccc2)c2nc(N3CCOCC3)cc(=O)n2c1 (stereo not given) = inactive
• C#CCN(C)CC1=Cc2ccccc2Oc2ccccc21 = inactive
• COC(=O)N1CCN(Cc2cccc(NC(=O)Nc3ccc(C)nc3)c2F)CC1 = inactive
• CN1c2ccccc2C(=O)N2CCc3c([nH]c4ccccc34)C21 (stereo not given) = inactive
• CN(C)CCOc1ccc(C(=C(CCCl)c2ccccc2)c2ccccc2)cc1 = active
• O=C(O)CCNc1cc(N2CCc3ccccc3CC2)nc(-c2ccccn2)n1 = inactive
• CC(C)(F)C[C@H](N[C@@H](c1ccc(-c2ccc(S(C)(=O)=O)cc2)cc1)C(F)(F)F)C(=O)NC1(C#N)CC1 = active
• COc1cc2ncnc(Nc3cc(Br)c(O)c(Br)c3)c2cc1OC = active

====

Experiment: Confirmatory screen NINDS Rhodamine qHTS for Zika virus inhibitors (AID 1347161); further: nearly all actives have a fitted effect of over 60% in size; further: potency means the concentration at half of the fitted maximal effect
Details: purified enzyme assay, Rhodamine110 substrate fluorescence, 15 min; series mostly up to 114 µM
Records with an inconclusive call do not appear. Activity calls are given as the source filed them. Calls come from the whole dose curve; as a rule, active = well fitted inhibition curve with a large enough effect; inconclusive = small, poorly fitted or top-dose-only effect; inactive = no such curve, though single readings can be large or run the other way.
recorded metric: Potency

- CCOC(=O)[C@H](CCc1ccccc1)N[C@@H](C)C(=O)N1CCCC1C(=O)O (some centres undefined): inactive
- Cn1c(=O)c(-c2c(Cl)cccc2Cl)cc2cnc(Nc3cccc(C(=O)O)c3)nc21: 13.9 µM (active)
- Fc1ccc(C(c2ccc(F)cc2)N2CCN(CC=Cc3ccccc3)CC2)cc1: inactive
- O=C(O)Cc1cccc(OCCCN(Cc2cccc(C(F)(F)F)c2Cl)CC(c2ccccc2)c2ccccc2)c1: 1.56 µM (active)
- Cc1ccc2c(c1)C(=O)[C@]1(O)CCN(c3ccccc3)C1=N2: inactive
- CC[C@H](C)n1cc(C)c2c(C(=O)NCc3c(C)cc(C)[nH]c3=O)cc(-c3ccc(N4CCNCC4)nc3)cc21: inactive
- Cc1nc(C(=O)NCC(=O)O)c(O)c2ccc(Oc3ccccc3)cc12: 34.9 µM (active)
- O=C(Nc1cccc2c(=O)cc(-c3nn[nH]n3)oc12)c1ccc(OCCCCc2ccccc2)cc1: 1.75 µM (active)
- CCCCC[C@H](O)C=C[C@H]1[C@H](O)CC(=O)[C@H]1CCCCCCC(=O)O: inactive

====

Test: qHTS Screen of the MIPE 4.0 Collection Against Ewings Sarcoma (TC32) (AID 1259256); further: nearly all actives have a fitted effect of over 45% in size
Details: TC32 Ewing sarcoma viability, CellTiter-Glo, 48 h; series mostly up to 45.8 µM
Inconclusive results are not listed. The source made the active and inactive calls. Calls come from the whole dose curve; as a rule, active = well fitted inhibition curve with a large enough effect; inconclusive = small, poorly fitted or top-dose-only effect; inactive = no such curve, though single readings can be large or run the other way.
Classes used: active, inactive

* CC(=O)O[C@]1(C(C)=O)CC[C@H]2[C@@H]3C=C(Cl)C4=CC(=O)[C@@H]5C[C@H]5[C@]4(C)[C@@H]3CC[C@@]21C | active
* CN1CCN(c2ncc(-c3cc(Cl)cc(Cl)c3Cl)c(N)n2)CC1 | inactive
* CN1CC(=O)N2C(Cc3c([nH]c4ccccc34)[C@H]2c2ccc3c(c2)OCO3)C1=O (stereo not given in full) | inactive
* CN1[C@H]2CC[C@H]1CC(OC(=O)c1c[nH]c3ccccc13)C2 (stereo not given in full) | active
* c1ccc(CNc2nc(N3CCOc4ccccc43)nc3c2CCCC3)cc1 | inactive
* CN(C)N=Nc1nc[nH]c1C(N)=O | inactive
* C=CCc1cccc(C=NNC(=O)CN2CCN(Cc3ccccc3)CC2)c1O | active
* COC(=O)N1CCN(Cc2cccc(NC(=O)Nc3ccc(C)nc3)c2F)CC1 | inactive
* CCCCC(F)(F)[C@@]1(O)CC[C@H]2[C@H](CC(=O)[C@@H]2CCCCCCC(=O)O)O1 | active
* NC(=O)c1ccc(N(C(N)=O)c2c(F)cccc2F)nc1-c1ccc(F)cc1F | inactive
